molecular target: factor D (Homo sapiens, UniProt P00746); construct: made in house; host or cells: E. coli; assay: factor D inhibition assay of Biological Example 2; assay type: biochemical
Sequence (P00746 26-253): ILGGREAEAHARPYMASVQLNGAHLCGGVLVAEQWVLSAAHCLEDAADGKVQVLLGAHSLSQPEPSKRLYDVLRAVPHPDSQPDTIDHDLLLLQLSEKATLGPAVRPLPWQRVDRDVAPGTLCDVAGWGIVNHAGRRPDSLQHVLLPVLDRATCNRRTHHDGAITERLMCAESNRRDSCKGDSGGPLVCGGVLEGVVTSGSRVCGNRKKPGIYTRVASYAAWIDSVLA
test.readout: IC50 (nM)

Previously resolved entries follow.
C[C@@H](N)c1cccc(-c2cc(COc3ccccc3CC(=O)O)cc(C(O)C(F)(F)F)c2)c1 (single isomer, unassigned) [116-H b) (tr = 3.0 min)]    10
C[C@@H](N)c1cccc(-c2cc(COc3ccccc3CC(=O)O)cc(OCC(F)(F)F)c2)c1F [Example 231-B]    11

A: CC(C)n1cc(-c2cc(COc3ccccc3CC(=O)O)cc(-c3cccc(CN)c3)c2)cn1 [Example 209-C]
B: N[C@H](CCO)c1cccc(-c2cccc(C(=O)Nc3ccccc3CC(=O)O)c2)c1 [Example 88]
Pick one: A or B . Which has the bigger IC50 number? Which one? Tell me its label.
B
(B: 958 nM, A: 5 nM)
